growth AUC values, listed per item
system: Eubacterium rectale; assay: growth AUC relative to DMSO control (median of replicates) (fraction); higher = more growth (less inhibition), active = hit call of the paper; conditions: 20 µM; 24 h
Please reply with the value in numeric form only.

// assay Eubacterium rectale, entry CCC(C)(CC)c1cc(NC(=O)c2c(OC)cccc2OC)on1 , growth AUC value = 0.986

// assay Eubacterium rectale, entry CCCN(CC1CC1)c1c([N+](=O)[O-])cc(C(F)(F)F)cc1[N+](=O)[O-] , growth AUC value = 1

// assay Eubacterium rectale, entry Cc1c(COC(=O)[C@@H]2[C@H](/C=C(\Cl)C(F)(F)F)C2(C)C)cccc1-c1ccccc1 , growth AUC value = 0.938

// assay Eubacterium rectale, entry CCCCOC(=O)N(C)SN(C)C(=O)Oc1cccc2c1OC(C)(C)C2 , growth AUC value = 1.2

// assay Eubacterium rectale, entry CC(=O)O.CCCCCCCCCCCCN=C(N)N , growth AUC value = 1.04

Origin of the recorded values: the supplement of paper PMC12669032
